# Experiment notes: Cytostatic toxicity against mouse L1210 cells expressing polyamine transport system assessed as reduction in cell growth at 10 uM after 48 hrs by MTT assay
# Assay type: ADME, cell-based
Give inhibition at 48 h, 10 µM for every item shown.
Numbers only, in %.

Cl.NCCCCNCCCNC1=NCCCCC1    30

Next item in the queue.
Field inhibition at 48 h, 10 µM (entry `Cl.NCCCCNCCCCNC1=NCCCCC1` ) reads 65
